target: Nuclear receptor subfamily 1 group I member 2 (Homo sapiens); assay: CYP3A4 induction through human pregnane X receptor (PXR) by small molecules, qHTS assay (AID 1346984); details: DPX-2 HepG2 PXR, CYP3A4-luciferin luminescence, 24 h; series mostly up to 46.1 µM; note: nearly all actives have a fitted effect of over 40% in size
Inconclusive results are not listed. Activity calls are given as the source filed them. Calls come from the whole dose curve; as a rule, active = well fitted activation curve with a large enough effect in the repeat runs; inconclusive = weak or mixed curves; inactive = no such curve, though single readings can be large or run the other way.
Respond with a class label; see active, inactive

CC(=O)[C@H]1CC[C@H]2[C@@H]3CC[C@H]4C[C@](C)(O)CC[C@]4(C)[C@H]3CC[C@]12C: inactive
CN1C(=O)NC(=O)C(C)(C2=CCCCC2)C1=O (stereo not given): inactive
C#CCOC(C(=O)OCCN(C)C)(c1ccccc1)c1ccccc1: active
Cn1sc(Cl)cc1=O: inactive

Answer briefly: the call reported for COCC(C)N(C(=O)CCl)c1c(C)csc1C (stereo not given) in this assay.
inactive

Try this compound too: CC(O)(CS(=O)(=O)c1ccc(F)cc1)C(=O)Nc1ccc(C#N)c(C(F)(F)F)c1 (stereo not given)
inactive
